# Test system: DDR2
# condition info: concentration: 1 μM,replicates: in singlicate; n = 1;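 further: KINOMEscan kinase panel screen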
endpoint: %Inh (%)
The reply should be a number in %, with the unit left off.

Measured %Inh for this entry COc1cccc(C2=C(Nc3cccc(Cl)c3)C(=O)NC2=O)c1 on DDR2: 0

%Inh on DDR2 for CN(c1cccc(CNc2nc(Nc3ccc4c(c3)CC(=O)N4)ncc2C(F)(F)F)c1)S(C)(=O)=O is 3

I looked up Cc1ccc(C(=O)Nc2ccc(Oc3ccc4nc(NC(=O)C5CC5)cn4c3)c(F)c2)c(=O)n1-c1ccccc1 and its %Inh for DDR2 was 100

The reported DDR2 %Inh of Cc1ccc(CC(=O)N2CCc3cc(-c4cn(C)c5ncnc(N)c45)ccc32)cc1 is 44

Form: item Cn1ccc2ncnc(Oc3ccc(NC(=O)Nc4ccnc(C(F)(F)F)c4)c(Cl)c3)c21 ; test system DDR2; %Inh: 99.6

With DDR2 as the test system, O=c1[nH]cc(-c2ccc(O)cc2)c2sc(-c3ccncc3)cc12 showed %Inh of 25

%Inh for DDR2 with input C[C@@H](Oc1cc(-n2cnc3cc(-c4cnn(C)c4)ccc32)sc1C(N)=O)c1ccccc1Cl equals 3

----------
# System: DAPK1
# condition info: concentration: 1 μM,replicates: in singlicate; n = 1
Label YES when %Inh is at or above 8%; anything below gets NO.

Use the examples below as a reference point.
| compound | assigned category |
| --- | --- |
| C[C@@H](Oc1cc(-n2cnc3ccc(-c4ccncc4)cc32)sc1C(N)=O)c1ccccc1Cl | NO |
| Cl.c1ccc(Oc2ccc(Nc3ccnc4cc(-c5ccc(CN6CCNCC6)o5)ccc34)cc2)nc1 | YES |
| CN(c1ccccc1CNc1nc(Nc2ccc3c(c2)CC(=O)N3)ncc1C(F)(F)F)S(C)(=O)=O | NO |

Item COc1cccc(OC)c1C(=O)Nc1cccc(-c2nn3ccccc3c2-c2ccnc(Nc3cccc(F)c3)n2)c1 with %Inh of 8% or above?
YES

Say whether Cc1ccc(CC(=O)N2CCc3cc(-c4cn(C)c5ncnc(N)c45)ccc32)cc1 shows %Inh of 8% or more.
NO

Can CC(=O)c1c(-c2ccncc2)[nH]c(-c2ccncc2)c1C be said to have %Inh at or above 8%?
NO

For this molecule, is measured %Inh 8% or higher? CC(=O)Nc1ccc(-c2cc3ncnc(SCC(=O)O)c3s2)cc1
YES

----------
# Tested on: CDK9
# condition info: concentration: 1 μM,replicates: in singlicate; n = 1
endpoint: %Inh (%)
Record the value in %, omitting the unit from your answer.

Per the reported CDK9 data, CS(=O)(=O)c1cccc(CNc2nc(Nc3ccc4c(c3)[C@@H]3C[C@@H]4CNC3=O)ncc2C(F)(F)F)c1 has %Inh of 27

----------
List of %Inh values.
# System: NEK11
# condition info: concentration: 1 μM,replicates: in singlicate; n = 1
Express your answer in %, writing the number without its unit.

| compound | measured number |
| --- | --- |
| CS(=O)(=O)Nc1ccc(-c2ccnc3[nH]ccc23)cc1 | 17 |
| O=C(Nc1cccc(Oc2ccc3nccn3n2)c1)Nc1cccc(C(F)(F)F)c1 | 0 |
| O=C(Nc1ccccc1)c1cccc(Oc2ccc3nccn3n2)c1 | 20 |
| CC(C)S(=O)(=O)N1CCN(Cc2ccc3c(c2)nc(NC(=O)c2ccsc2)n3C[C@H](O)c2ccccc2)CC1 | 1 |
| Cc1cccc2c(-c3ccncc3)c(-c3ccc(F)cc3)nn12.Cl | 4 |
| Nc1nccc(-c2ccc3c(N)n[nH]c3c2)n1 | 0 |

Below: the item to evaluate.
Form field %Inh, entry Cc1ccc(Nc2ccnc(Nc3ccc4c(c3)CS(=O)(=O)C4)n2)cc1O.Cl : 5

----------
# Test system: CSF1R
# condition info: concentration: 1 μM,replicates: in singlicate; n = 1
endpoint: %Inh (%)
Give the value, in units of %, as a plain number.

Value of %Inh reported for the molecule C[C@@H]1CNc2c(sc3ccc4nc(-c5ccc(O)cc5)ccc4c23)C(=O)N1 is 4

Lab book: %Inh of C[C@@H]1CNc2c(sc3ccc4nc(-c5ccncc5)ccc4c23)C(=O)N1 noted as 8

Just so you know, measured %Inh for Cc1ccc(CC(=O)N2CCc3cc(-c4cn(C)c5ncnc(N)c45)ccc32)cc1 came out at 79

The recorded %Inh for Cn1ccc2ncnc(Oc3ccc(NC(=O)Nc4cccc(C(F)(F)F)c4)c(Cl)c3)c21 is 99.5

# molecule CC(C(=O)NC1CCN(c2ccnc(Nc3ccc(F)cc3)n2)C1)c1ccc(Cl)cc1 (centres unmarked) ; its %Inh = 0

Recorded result, CN(c1ccc2c(c1)nc(NCc1ccc(F)cc1)n2C)c1ccnc(Nc2ccc(CS(C)(=O)=O)cc2)n1.Cl , %Inh: 100

Lab note: measured %Inh of Cn1ccc2ncnc(Oc3ccc(NC(=O)Nc4cnn(C(C)(C)C)c4)c(Cl)c3)c21 was 99.9

// %Inh value for c1ccc(Oc2ccc(Nc3ccnc4ccc(-c5ccccn5)cc34)cc2)cc1 : 9

The molecule identified as CNC(=O)c1ccccc1Nc1nc(Nc2cccc(CS(C)(=O)=O)c2)ncc1C.O=CO registered its %Inh at 99.8

GET /value?item= COc1cc2nccc(Nc3ccc(Oc4ccccc4)cc3)c2cc1OC.Cl &field=%Inh returns 14

Consider CSc1nccc(-c2c(-c3ccc(F)cc3)ncn2CCCN2CCOCC2)n1.Cl . Its measured %Inh is 0

Record CCn1c(-c2nonc2N)nc2cncc(CNC3CCNCC3)c21.Cl , field %Inh: 10

Please fill in: %Inh reported for Cl.Cl.NC[C@H](CC1CCCCC1)NC(=O)c1ccc(-c2ccnc3[nH]ccc23)s1 = 85

Notebook: Cc1nnc(-c2ccc3occ(-c4ccc(S(C)=O)cc4)c3n2)o1 (centres unmarked) , %Inh read as 1

The recorded %Inh for entry CCn1c(-c2nonc2N)nc2cncc(Br)c21 equals 5

Record summary for CC(C)S(=O)(=O)N1CCN(Cc2ccc3c(c2)nc(NC(=O)c2ccsc2)n3C[C@H](O)c2ccccc2)CC1 : reported %Inh = 68

----------
# Test system: NDR2
# condition info: concentration: 1 μM,replicates: in singlicate; n = 1
endpoint: %Inh (%)
The figure you give is taken to be in %; do not add the unit.

Look over these answered cases.
| compound | %Inh / % |
| --- | --- |
| O=C(Nc1cccc(Oc2ccc3nccn3n2)c1)Nc1cccc(C(F)(F)F)c1 | 0 |
| Cl.Nc1n[nH]c2cc(-c3ccccn3)ccc12 [GSK2189892] | 0 |
| Cn1ccc2ncnc(Oc3ccc(NC(=O)Nc4cncc(C(F)(F)F)c4)c(Cl)c3)c21 | 0 |
| CCCC(=O)Nc1n[nH]c2ncccc12 [SB-601436] | 0 |
| CCn1c(-c2nonc2N)nc2cncc(Br)c21 [SB-738004] | 35 |

Reported %Inh for Cn1ccc2ncnc(Oc3ccc(NC(=O)Nc4cc(C(C)(C)C)on4)c(Cl)c3)c21 was 1

compound COc1cc2nccc(Nc3ccc(Oc4ccccc4)cc3)c2cc1OC.Cl [GI261656] , %Inh observed: 29

Input COc1cc2c(Nc3ccc(NC(=O)c4ccccc4)cc3)ncnc2cc1OCCCN1CCOCC1 [GSK301329] . Output %Inh: 0

Item: Nc1nccc(-c2ccc3c(N)n[nH]c3c2)n1 [GSK1034945] | %Inh: 0

Short answer for N#Cc1cccc(C(=O)NC2CCN(c3ccnc(Nc4ccc(F)cc4)n3)C2)c1 (centres unmarked) [GSK1379708] : %Inh was 41

Record Cl.c1ccc(Oc2ccc(Nc3ccnc4cc(-c5ccc(CN6CCNCC6)o5)ccc34)cc2)nc1 [GW567142] , field %Inh: 4

get_value(item= CC(=O)Nc1nc2cnc(Nc3cc(NC(=O)c4cccc(CC(C)(C)C#N)c4)ccc3C)nc2s1 , readout=%Inh) returns 13

# %Inh (compound: CC(=O)c1c(-c2ccncc2)[nH]c(-c2ccncc2)c1C [GW493036] ) is 0

Just so you know, measured %Inh for Cc1ccn2nc(-c3ccc(F)cc3)c(-c3ccncc3)c2c1.Cl [GW457859] came out at 40

The compound listed as CS(=O)(=O)c1cccc(CNc2nc(Nc3ccc4c(c3)[C@@H]3C[C@@H]4CNC3=O)ncc2C(F)(F)F)c1 shows %Inh equal to 6

Sure, the documented %Inh for CN(c1ccccc1CNc1nc(Nc2ccc3c(c2)CC(=O)N3)ncc1C(F)(F)F)S(C)(=O)=O is 12

According to the records, this compound CCOC(=O)N1CCC(n2cnc(-c3ccc(F)cc3)c2-c2ccnc(N)n2)CC1 [SB-219952] displays %Inh of 0

Cc1cccc(-c2nc(Nc3ccncc3)c3sccc3n2)n1 [GW869641] yielded %Inh of 0

Field %Inh (entry COc1cccc(OC)c1C(=O)Nc1cccc(-c2nn3ccccc3c2-c2ccnc(Nc3cccc(F)c3)n2)c1 [GSK361065] ) reads 13

Noted for C[C@@H](Oc1cc(-n2cnc3ccc(-c4ccncc4)cc32)sc1C(N)=O)c1ccccc1Cl [GSK483724] : its %Inh reads 0

CN1CCN(CCNc2nc3cc(Oc4ccc(NC(=O)Nc5cc(C(F)(F)F)ccc5F)cc4)ccc3[nH]2)CC1.Cl.Cl [GW768504] yielded %Inh of 7

Entry C[C@@H]1CNc2c(sc3ccc4nc(-c5ccncc5)ccc4c23)C(=O)N1 , %Inh reported as 0

%Inh reported for this compound CC(C)S(=O)(=O)N1CCN(Cc2ccc3c(c2)nc(NC(=O)c2ccsc2)n3C[C@H](O)c2ccccc2)CC1 [GW635815] : 24

So, NC(=O)Nc1sc(-c2ccc(F)cc2)cc1C(N)=O [GW789449] ? Its %Inh was 7

The reported value for CN(c1ccc2c(c1)nc(NCc1ccc(F)cc1)n2C)c1ccnc(Nc2ccc(CS(C)(=O)=O)cc2)n1.Cl [GW813244] in terms of %Inh is 0

Sure, the documented %Inh for Cn1ccc2ncnc(Oc3ccc(NC(=O)Nc4ccnc(C(F)(F)F)c4)c(Cl)c3)c21 is 2

Input C[C@@H](Oc1cc(-n2cnc3cc(-c4ccncc4)ccc32)sc1C(N)=O)c1ccccc1Cl [GSK479719] . Output %Inh: 0

For record CCNCC(Cc1ccccc1)NC(=O)c1cc(Br)c(-c2ccnc3[nH]ccc23)s1.Cl.Cl (centres unmarked) [GSK1383280] the listed %Inh is 52

The origin of these recorded values is paper PMC5540273.
